# target entity: GPR183 (Homo sapiens)
# Sequence (P32249 whole entry): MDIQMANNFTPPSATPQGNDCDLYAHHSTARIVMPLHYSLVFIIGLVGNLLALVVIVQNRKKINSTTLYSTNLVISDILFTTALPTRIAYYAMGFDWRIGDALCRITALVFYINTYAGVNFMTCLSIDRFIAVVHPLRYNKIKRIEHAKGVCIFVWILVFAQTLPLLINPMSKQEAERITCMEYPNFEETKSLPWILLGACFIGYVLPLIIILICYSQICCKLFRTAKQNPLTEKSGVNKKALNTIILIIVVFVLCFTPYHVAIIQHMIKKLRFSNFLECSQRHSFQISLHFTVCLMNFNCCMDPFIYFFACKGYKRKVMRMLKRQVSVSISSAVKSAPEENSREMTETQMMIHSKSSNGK
# protocol description: Calcium mobilization antagonism assay (7α,25-OHC-induced) in HL-60 cells
# Type: cell-based
# Parameters: host or cells: HL-60 (human leukemia) cells
# condition label: 7α,25-OHC at EC80
result type: IC50 (nM)
Quick reminder: number only, in nM, skip the unit.

Name the reported IC50 value associated with the compound O=C(CCc1ccc(F)c(F)c1)Nc1cc(F)cc(N2CCOCC2)c1
28.5

* * *

# target entity: UniProtKB P32249
# protocol description: Calcium mobilization agonism assay in HL-60 cells
# Text: The Human leukemia (HL)-60 cells (American Type Culture Collection; Manassas, VA) were cultivated in RPMI 1640 media containing 10% heat-inactivated fetal bovine serum (FBS), 1% penicillin, and 1% GlutaMax. Cells were passaged every 3 days and maintained at a cell concentration below 1×10^6 to prevent differentiation. […]
result type: EC50 (nM)
All answers are understood in nM, so give the number only.

Fill in: EC50 of C[C@H](CCCC(C)(C)O)[C@H]1CC[C@H]2[C@@H]3[C@H](O)C=C4C[C@@H](O)CC[C@]4(C)[C@H]3CC[C@]12C [7α,25-OHC, 7α,25-dihydroxycholesterol] is ___
42.4
